Taken from paper PMC7178174.

Target: rat P2X4R (P2X4 receptor) (Rattus norvegicus, UniProt P51577)
Construct: full-length cDNA in pcDNA3, cRNA expressed in Xenopus laevis oocytes; homomeric trimer; ~60 kDa band
Sequence (P51577 1-388): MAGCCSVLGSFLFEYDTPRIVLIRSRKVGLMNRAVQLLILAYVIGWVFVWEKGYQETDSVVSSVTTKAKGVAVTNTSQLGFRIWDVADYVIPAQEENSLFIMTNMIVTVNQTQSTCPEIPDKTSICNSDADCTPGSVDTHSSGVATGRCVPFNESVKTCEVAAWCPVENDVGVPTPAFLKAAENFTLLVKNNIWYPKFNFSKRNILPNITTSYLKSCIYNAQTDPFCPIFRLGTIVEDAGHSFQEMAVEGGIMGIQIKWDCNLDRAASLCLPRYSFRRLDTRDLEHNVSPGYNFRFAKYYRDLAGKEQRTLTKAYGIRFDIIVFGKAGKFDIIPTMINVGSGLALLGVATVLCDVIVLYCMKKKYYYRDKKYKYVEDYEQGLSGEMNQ
Test: two-electrode voltage clamp, Xenopus oocytes, ATP-gated current
pEC50: −log10 of the molar value.
recorded.endpoint: pEC50

[[record]]
test_smiles = "Nc1ncnc2c1ncn2[C@@H]1O[C@H](COP(=O)(O)OP(=O)(O)OP(=O)(O)O)[C@@H](O)[C@H]1O"
result_value = 5.24


====

Biological target: rat P2X4R (P2X4 receptor) (Rattus norvegicus, UniProt P51577, V49L)
Construct: gene P2rx4; full-length cDNA in pcDNA3, cRNA expressed in Xenopus laevis oocytes; homomeric trimer; ~60 kDa band
Experiment: two-electrode voltage clamp, Xenopus oocytes, ATP-gated current
Type: cell-based
pEC50: −log10 of the molar value.
recorded.endpoint: pEC50

[[record]]
test_smiles = "Nc1ncnc2c1ncn2[C@@H]1O[C@H](COP(=O)(O)OP(=O)(O)OP(=O)(O)O)[C@@H](O)[C@H]1O"
system_under_test = "rat P2X4R (P2X4 receptor) (Rattus norvegicus, UniProt P51577, V49L)"
result_value = 4.97


====

Target: rat P2X4R (P2X4 receptor) (Rattus norvegicus, UniProt P51577, A34W)
Construct: full-length cDNA in pcDNA3, cRNA expressed in Xenopus laevis oocytes; homomeric trimer; ~60 kDa band
Sequence (P51577 1-388 A34W): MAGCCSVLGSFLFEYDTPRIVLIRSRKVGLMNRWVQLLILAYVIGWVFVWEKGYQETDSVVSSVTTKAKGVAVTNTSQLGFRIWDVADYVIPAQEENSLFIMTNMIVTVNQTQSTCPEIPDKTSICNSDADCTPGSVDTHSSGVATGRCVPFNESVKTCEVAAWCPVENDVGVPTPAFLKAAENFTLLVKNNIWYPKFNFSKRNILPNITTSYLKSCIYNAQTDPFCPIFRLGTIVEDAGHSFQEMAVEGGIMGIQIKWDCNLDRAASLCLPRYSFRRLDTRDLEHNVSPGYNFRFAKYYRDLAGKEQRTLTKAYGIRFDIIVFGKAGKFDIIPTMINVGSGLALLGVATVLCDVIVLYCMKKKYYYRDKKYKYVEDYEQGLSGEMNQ
Assay: two-electrode voltage clamp, Xenopus oocytes, ATP-gated current
recorded.endpoint: EC50 (µM)

[[record]]
compound = "Nc1ncnc2c1ncn2[C@@H]1O[C@H](COP(=O)(O)OP(=O)(O)OP(=O)(O)O)[C@@H](O)[C@H]1O [ATP]"
result_value = 6.5


====

Target: rat P2X4R (P2X4 receptor) (Rattus norvegicus, UniProt P51577, L37A)
Construct: full-length cDNA in pcDNA3, cRNA expressed in Xenopus laevis oocytes; homomeric trimer; ~60 kDa band
Sequence (P51577 1-388 L37A): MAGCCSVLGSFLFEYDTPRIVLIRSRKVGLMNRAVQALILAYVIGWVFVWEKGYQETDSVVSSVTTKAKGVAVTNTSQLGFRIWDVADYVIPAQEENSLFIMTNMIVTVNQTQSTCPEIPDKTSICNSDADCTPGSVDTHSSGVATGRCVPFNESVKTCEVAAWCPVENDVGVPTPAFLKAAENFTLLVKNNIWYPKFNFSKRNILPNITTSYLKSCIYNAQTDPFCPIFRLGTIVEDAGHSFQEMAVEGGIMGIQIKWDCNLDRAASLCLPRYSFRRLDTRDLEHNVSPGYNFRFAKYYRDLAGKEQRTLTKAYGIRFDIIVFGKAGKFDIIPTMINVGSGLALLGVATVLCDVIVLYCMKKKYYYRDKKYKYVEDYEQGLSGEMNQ
Assay: two-electrode voltage clamp, Xenopus oocytes, ATP-gated current
From the text: two-electrode voltage clamp, Xenopus oocytes, ATP-gated current on rat P2X4R (P2X4 receptor)
pEC50: −log10 of the molar value.
recorded.endpoint: pEC50

[[record]]
test_smiles = "Nc1ncnc2c1ncn2[C@@H]1O[C@H](COP(=O)(O)OP(=O)(O)OP(=O)(O)O)[C@@H](O)[C@H]1O"
recorded_endpoint = "pEC50"
result_value = 5.05


====

Target: rat P2X4R (P2X4 receptor) (Rattus norvegicus, UniProt P51577, W46A)
Construct: full-length cDNA in pcDNA3, cRNA expressed in Xenopus laevis oocytes; homomeric trimer; ~60 kDa band
Sequence (P51577 1-388 W46A): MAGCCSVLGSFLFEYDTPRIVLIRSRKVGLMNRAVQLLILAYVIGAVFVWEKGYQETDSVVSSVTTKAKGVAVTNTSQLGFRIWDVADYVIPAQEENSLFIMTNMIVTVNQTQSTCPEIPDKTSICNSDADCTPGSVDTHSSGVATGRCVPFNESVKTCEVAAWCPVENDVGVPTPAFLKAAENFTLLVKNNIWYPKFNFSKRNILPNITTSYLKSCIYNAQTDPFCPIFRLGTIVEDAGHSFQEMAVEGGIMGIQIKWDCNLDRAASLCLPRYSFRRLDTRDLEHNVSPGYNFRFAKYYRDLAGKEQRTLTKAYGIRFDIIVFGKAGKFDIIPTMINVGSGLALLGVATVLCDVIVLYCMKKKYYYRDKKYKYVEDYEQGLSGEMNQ
Experiment: two-electrode voltage clamp, Xenopus oocytes, ATP-gated current
pEC50: −log10 of the molar value.
recorded.endpoint: pEC50

[[record]]
compound = "Nc1ncnc2c1ncn2[C@@H]1O[C@H](COP(=O)(O)OP(=O)(O)OP(=O)(O)O)[C@@H](O)[C@H]1O [ATP]"
system_under_test = "rat P2X4R (P2X4 receptor) (Rattus norvegicus, UniProt P51577, W46A)"
recorded_endpoint = "pEC50"
result_value = 5.45


====

Target: rat P2X4R (P2X4 receptor) (Rattus norvegicus, UniProt P51577, F48A)
Construct: full-length cDNA in pcDNA3, cRNA expressed in Xenopus laevis oocytes; homomeric trimer; ~60 kDa band
Assay: two-electrode voltage clamp, Xenopus oocytes, ATP-gated current
pEC50: −log10 of the molar value.
recorded.endpoint: pEC50

[[record]]
test_smiles = "Nc1ncnc2c1ncn2[C@@H]1O[C@H](COP(=O)(O)OP(=O)(O)OP(=O)(O)O)[C@@H](O)[C@H]1O"
recorded_endpoint = "pEC50"
result_value = 5.45


====

Molecular target: rat P2X4R (P2X4 receptor) (Rattus norvegicus, UniProt P51577, R33A)
Construct: full-length cDNA in pcDNA3, cRNA expressed in Xenopus laevis oocytes; homomeric trimer; ~60 kDa band
Assay: two-electrode voltage clamp, Xenopus oocytes, ATP-gated current
recorded.endpoint: EC50 (µM)

[[record]]
test_smiles = "Nc1ncnc2c1ncn2[C@@H]1O[C@H](COP(=O)(O)OP(=O)(O)OP(=O)(O)O)[C@@H](O)[C@H]1O"
recorded_endpoint = "EC50"
value_unit = "µM"
result_value = 7.04

